# assay.overview: Inducers of the Endoplasmic Reticulum Stress Response (ERSR) in human glioma: Validation (AID 504836)
# assay.setup: human glioma cells, ER stress response reporter; series mostly up to 38.3 µM
The source made the active and inactive calls. Calls come from the whole dose curve; as a rule, active = well fitted curve in the direction sought with a large enough effect; inconclusive = small, poorly fitted or top-dose-only effect, or effect the other way, or another doubt; inactive = no such curve, though single readings can be large or run the other way.
reported.endpoint: outcome

| compound | outcome |
| --- | --- |
| Cc1cn([C@H]2C=C[C@@H](CO)O2)c(=O)[nH]c1=O | inactive |
| CN1CC(=O)N/C1=N/C(=O)Nc1cccc(Cl)c1 | inactive |
| CN1CCN(C2=Nc3cc(Cl)ccc3Nc3ccccc32)CC1 | inactive |
| C[C@]12CC[C@@H]3c4ccc(O)cc4C[C@@H](CCCCCCCCCS(=O)CCCC(F)(F)C(F)(F)F)[C@H]3[C@@H]1CC[C@@H]2O (stereo partly specified) | inactive |
| CCCCNC(=O)NS(=O)(=O)c1ccc(C)cc1 | inactive |

Kindly note the recorded outcome for CN[C@H]1CC[C@@H](c2ccc(Cl)c(Cl)c2)c2ccccc21 , which is inactive
